# Test system: SNB-75 CNS
# assayName: NCI-60 one-dose screen, 48 h (100 = growth as untreated, 0 = no growth, -100 = all killed)
# experimentalConditions: 10 µM unless noted
This is part of a sample that, as a whole, favours compounds with a hit. Of some 83,000 tested, about 20% had one in any assay.
Catalogue of growth values
Numeric answer only, unit % assumed.

Req: # lookup: growth of CCOC(=O)c1ccc2n1CCCc1cnc(NC(C)=O)nc1-2
Resp: 85.5

Req: # lookup: growth of COc1cc(-c2cc3cnccc3c3nc(N)c4ccncc4c23)cc(OC)c1OC
Resp: -2.5

---

Catalogue of growth values
# System: NCI/ADR-RES ovarian
# assayName: NCI-60 one-dose screen, 48 h (100 = growth as untreated, 0 = no growth, -100 = all killed)
# experimentalConditions: 10 µM unless noted
Compounds without any hit were thinned out: in the full panel of roughly 83,000, 20% have a hit.
Numeric answer only, unit % assumed.

In [3]: df
Out[3]:
                                 chemsmiles  valueunits  recordedmeasurement
0  COc1ccc(/C=C2\SC(=O)N(Cc3cc(=O)oc4ccc(OC)cc34)C2=O)cc1           %                 95.7
1  O=c1oc2ccc3ccccc3c2cc1-c1ccnc2[nH]c(=S)[nH]c(=O)c12           %                 94.8
2  Cc1nnc(-c2cc3c(ccc4ccccc43)oc2=O)c2cn(-c3ccc(Cl)cc3)nc12           %                 96.3

Req: # lookup: growth of COC(=O)c1ccc2[nH]c(O)c(C(=Nc3ccc(N(C)C(=O)CN4CCN(C)CC4)cc3)c3ccc(CCO)cc3)c2c1
Resp: 104

Req: # lookup: growth of Cn1c2ccccc2c2ccccc21
Resp: 101

Req: # lookup: growth of Ic1ccc(SSc2ccc(I)cc2)cc1
Resp: 101
